The measured values listed here are drawn from patent US11447445B2.

ASSAYED_TARGET: recombinant human sEH (Homo sapiens, UniProt P34913)
Sequence (P34913 whole entry): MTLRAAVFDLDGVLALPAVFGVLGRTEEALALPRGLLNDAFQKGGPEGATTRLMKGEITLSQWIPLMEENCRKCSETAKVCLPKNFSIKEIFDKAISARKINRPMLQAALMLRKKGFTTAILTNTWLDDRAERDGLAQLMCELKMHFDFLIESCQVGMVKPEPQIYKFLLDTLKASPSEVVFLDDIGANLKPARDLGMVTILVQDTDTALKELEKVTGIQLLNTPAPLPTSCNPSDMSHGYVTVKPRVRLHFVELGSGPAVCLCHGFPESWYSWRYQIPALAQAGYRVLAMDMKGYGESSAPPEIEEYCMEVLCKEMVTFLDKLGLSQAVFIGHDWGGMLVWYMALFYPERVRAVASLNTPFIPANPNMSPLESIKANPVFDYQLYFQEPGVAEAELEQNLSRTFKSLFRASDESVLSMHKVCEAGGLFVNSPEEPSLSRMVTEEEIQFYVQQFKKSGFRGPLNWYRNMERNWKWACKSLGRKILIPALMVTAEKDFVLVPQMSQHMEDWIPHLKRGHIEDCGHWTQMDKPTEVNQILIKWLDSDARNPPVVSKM
EXPERIMENT_SUMMARY: biochemical
QUANTITY_MEASURED: pIC50
The quantity pIC50 is defined as the negative base-10 logarithm of the molar concentration.

Please look up its pIC50: CCOC(=O)/C(=C/c1ccc(C(=O)NCc2ccc(OC)cc2)cc1)CC [Compound 10a]
6.26

====

ASSAYED_TARGET: recombinant human sEH (Homo sapiens)
EXPERIMENT_SUMMARY: biochemical
RUN_CONDITIONS: read-out: IC50 sEH (converted)
Listing: IC50 of selected molecules
Please respond with the number in nM and leave the unit unwritten.

Known results for molecules:
>  <MOLECULE>
CCOC(=O)/C(=C/c1ccc(C(=O)NCc2ccccc2C(F)(F)F)cc1)c1ccccc1 [Compound 19a]

>  <ASSAYED_TARGET>
recombinant human sEH (Homo sapiens)

>  <UNITS>
nM

>  <IC50>
160

$$$$
>  <MOLECULE>
CC/C(=C\c1ccc(C(=O)NCc2ccccc2)cc1)C(=O)O

>  <ASSAYED_TARGET>
recombinant human sEH (Homo sapiens)

>  <UNITS>
nM

>  <IC50>
9300

$$$$
>  <MOLECULE>
O=C(O)/C=C/c1ccc(C(=O)NCc2ccccc2C(F)(F)F)cc1 [Compound 16d]

>  <ASSAYED_TARGET>
recombinant human sEH (Homo sapiens)

>  <UNITS>
nM

>  <IC50>
800

$$$$
>  <MOLECULE>
CCCC(Cc1ccc(C(=O)NCc2ccccc2C(F)(F)F)cc1)C(=O)OCC (stereo not drawn) [Compound 18b]

>  <ASSAYED_TARGET>
recombinant human sEH (Homo sapiens)

>  <UNITS>
nM

>  <IC50>
170

$$$$
>  <MOLECULE>
CC/C(=C\c1ccc(C(=O)NCc2ccccc2OC(F)(F)F)cc1)C(=O)O

>  <ASSAYED_TARGET>
recombinant human sEH (Homo sapiens)

>  <UNITS>
nM

>  <IC50>
900

$$$$
>  <MOLECULE>
CCOC(=O)C(CC)Cc1cccc(C(=O)NCc2ccccc2C(F)(F)F)c1 (stereo not drawn) [Compound 15b]

>  <ASSAYED_TARGET>
recombinant human sEH (Homo sapiens)

>  <UNITS>
nM

>  <IC50>
27

$$$$
>  <MOLECULE>
CON(C)C(=O)C1CC1c1ccc(C(=O)NCc2ccccc2C(F)(F)F)cc1 (stereo not drawn)

>  <ASSAYED_TARGET>
recombinant human sEH (Homo sapiens)

>  <UNITS>
nM

>  <IC50>
80

$$$$
>  <MOLECULE>
O=C(NCc1ccccc1C(F)(F)F)c1ccc(C2CC2C(=O)O)cc1 (stereo not drawn)

>  <ASSAYED_TARGET>
recombinant human sEH (Homo sapiens)

>  <UNITS>
nM

>  <IC50>
5500

$$$$

Please look up its IC50: CCOC(=O)/C(=C/c1ccc(C(=O)NCc2ccccc2C)cc1)CC
760

Check CCOC(=O)/C(=C/c1ccc(C(=O)NCc2ccccc2Br)cc1)CC too.
300

Check CC/C(=C\c1ccc(C(=O)NCc2ccccc2Cl)cc1)C(=O)O too.
2800
